Quick list: GI50 per entry.
Test system: OVCAR-4
Test: NCI tumour cell line growth inhibition, 48 h
The source made the active and inactive calls. Rule as the data show it: active = GI50 up to about 1.1 µM and inactive = higher.
Reported Metric: GI50

[
  {
    "Input Smiles": "Cc1ccc(C2=NN=C3C(c4ccccc4)=Nc4ccccc4N3C2)cc1",
    "Tested Target": "OVCAR-4",
    "Result": "3.18 µM (inactive)"
  },
  {
    "Input Smiles": "CCOC(=O)c1ccc(-c2cc(C)[nH]n2)[nH]1",
    "Tested Target": "OVCAR-4",
    "Result": "> 100 µM (inactive)"
  },
  {
    "Input Smiles": "O[C@H]1[C@H](O)[C@H](O)CN2CCC[C@@H](O)[C@H]12",
    "Tested Target": "OVCAR-4",
    "Result": "> 100 µM (inactive)"
  },
  {
    "Input Smiles": "CC1=CC(=O)/C(=C/N2C(=O)CNC2=S)C(=O)O1",
    "Tested Target": "OVCAR-4",
    "Result": "> 100 µM (inactive)"
  }
]

* * *

System: A549
Assay: NCI tumour cell line growth inhibition, 48 h
The source made the active and inactive calls. Cut-off read from the data, not from the text of the source: active = GI50 up to about 1.1 µM and inactive = higher.
Recorded GI50 by entry

[
  {
    "Input Smiles": "O=c1n(CCO)nc2n1CCCN2",
    "GI50": "> 100 µM (inactive)"
  },
  {
    "Input Smiles": "CC(=O)OC1=CC2=CC[C@H]3[C@@H]4CCC(=O)[C@@]4(C)CC(=O)[C@]3(S)[C@@]2(C)CC1",
    "GI50": "49.4 µM (inactive)"
  },
  {
    "Input Smiles": "CCCCNc1nc2ccccc2c2c1ncn2CC(C)C",
    "GI50": "> 100 µM (inactive)"
  },
  {
    "Input Smiles": "O=C(Cn1c(C(=O)c2ccccc2)nc2ccccc21)c1ccccc1",
    "GI50": "> 96.4 µM (inactive)"
  },
  {
    "Input Smiles": "CNc1cccnc1/C=N/N=C(/N)S",
    "GI50": "2.61 µM (inactive)"
  },
  {
    "Input Smiles": "O=S(=O)(O)c1cc(S(=O)(=O)O)c2c(/N=N/c3ccc(S(=O)(=O)O)c4ccccc34)c(O)ccc2c1",
    "GI50": "> 100 µM (inactive)"
  },
  {
    "Input Smiles": "Cn1cnc([N+](=O)[O-])c1Sc1nc(N)nc2c1ncn2Cc1ccccc1",
    "GI50": "25.5 µM (inactive)"
  },
  {
    "Input Smiles": "CCOCC(=O)N(C)c1cccc2c3c(n(C)c12)CCCCC3",
    "GI50": "> 100 µM (inactive)"
  },
  {
    "Input Smiles": "Cc1ccc(Nc2sc(C)cc2C#N)c([N+](=O)[O-])c1",
    "GI50": "> 100 µM (inactive)"
  }
]
